The origin of these recorded values is patent US20240294531A1.

Below, each entry is listed with its recorded IC50.
Target: BTK C481S protein (Homo sapiens (Human), UniProt Q06187, C481S)
Sequence (Q06187 2-659 C481S): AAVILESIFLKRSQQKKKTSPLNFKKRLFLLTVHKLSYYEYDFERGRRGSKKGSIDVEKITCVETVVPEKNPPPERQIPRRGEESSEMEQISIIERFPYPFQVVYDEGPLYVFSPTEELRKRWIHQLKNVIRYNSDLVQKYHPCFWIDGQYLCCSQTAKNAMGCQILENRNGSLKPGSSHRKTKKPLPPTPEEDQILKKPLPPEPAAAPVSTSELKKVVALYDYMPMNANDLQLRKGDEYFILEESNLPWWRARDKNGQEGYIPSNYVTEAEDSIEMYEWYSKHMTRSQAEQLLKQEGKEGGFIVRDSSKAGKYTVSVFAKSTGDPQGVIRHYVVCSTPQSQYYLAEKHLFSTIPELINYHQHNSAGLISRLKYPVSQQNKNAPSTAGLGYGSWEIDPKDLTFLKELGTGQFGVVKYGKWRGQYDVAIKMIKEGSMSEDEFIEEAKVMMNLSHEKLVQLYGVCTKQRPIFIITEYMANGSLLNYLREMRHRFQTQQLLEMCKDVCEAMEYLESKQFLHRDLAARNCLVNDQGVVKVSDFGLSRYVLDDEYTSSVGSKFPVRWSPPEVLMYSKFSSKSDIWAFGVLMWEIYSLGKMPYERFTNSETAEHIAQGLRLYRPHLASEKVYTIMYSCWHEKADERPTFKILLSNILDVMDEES
Assay: BTK C481S HTRF displacement assay
Details: 1-hour incubation

COc1ccc(C)cc1C(=O)NCc1ccc(-c2nn(CC3CCCCN3C(=O)n3cnnn3)c3ncnc(N)c23)cc1 (centres unmarked) [Compound 158]
> 1 µM
COc1ccc(F)cc1C(=O)NCc1ccc(-c2nn(C(CC3CC3)CN(C)C(=O)n3cncn3)c3ncnc(N)c23)cc1 (centres unmarked) [Compound 127]
> 1 µM
NC(=O)c1cn(C[C@@H]2CCCCN2C(=O)n2cncn2)nc1-c1ccc(Oc2ccccc2)cc1 [Compound 175]
> 1 µM
COc1ccc(F)cc1C(=O)NCc1ccc(-c2nn(C3(CN(C)C(=O)n4cnnn4)CC3)c3ncnc(N)c23)cc1 [Compound 119]
> 1 µM

IC50 of COc1ccc(F)cc1C(=O)NCc1ccc(-c2nn(C[C@H](C)N(C)C(=O)n3cncn3)c3ncnc(N)c23)cc1 [Compound 315] on BTK C481S protein (Homo sapiens (Human), UniProt Q06187, C481S)?
> 1 µM

IC50 of COc1ccc(F)cc1C(=O)NCc1ccc(-c2nn(CC3CCN(C(=O)n4cncn4)C3)c3ncnc(N)c23)cc1 (centres unmarked) [Compound 245] on BTK C481S protein (Homo sapiens (Human), UniProt Q06187, C481S)?
≤ 1 µM

IC50 of COc1ccc(F)cc1C(=O)NCc1ccc(-c2nn(C3CCC(N(C)C(=O)n4cncn4)C3)c(N)c2C(N)=O)cc1 (centres unmarked) [Compound 150] on BTK C481S protein (Homo sapiens (Human), UniProt Q06187, C481S)?
≤ 1 µM

IC50 of CC1CC(n2nc(-c3ccc(Oc4ccccc4)cc3)c3c(N)ncnc32)CCN1C(=O)n1cncn1 (centres unmarked) [Compound 144] on BTK C481S protein (Homo sapiens (Human), UniProt Q06187, C481S)?
≤ 1 µM
